# protocol.text: protein stability index of a GFP-peptide fusion (GPS, HEK-293T) (PSI 1-6); higher = more stable;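 further: 24-mer peptide tiles fused after GFP, lentivirally expressed, FACS-sorted into six equal bins by GFP/DsRed ratio, decoded by Illumina sequencing, PSI is the read-weighted mean bin number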
# conditions: treatment: MLN4924 1 uM, 8 h; c terminus: a fixed tail appended
Consider the following partition of reported protein stability index into named classes: L = under 3, M = from 3 up to 4, H = 4 and over

Example entries begin here.
# input # bin lookup: classify KEEEEEDCSEEYLERQLQAEFIES [TAF7L] by its protein stability index
# output H

# input // bin(item) where item = KLKKGICEALEDSDGRQDSPAGEL [MATN2]
# output H

# input Using the reported protein stability index, which band applies to MSEMAELSELYEESSDLQMDVMPG [EID1] ?
# output H

New cases:
# input State the band of LCEKAKEILTKESNVQEVRCPVTV [PPP2CA]
# output H
